Molecular target: Estrogen Receptor (ERα) in MCF-7 human ductal carcinoma breast cell line (Homo sapiens)
Construct: endogenous in cells; host or cells: MCF-7
Sequence (P03372 1-595): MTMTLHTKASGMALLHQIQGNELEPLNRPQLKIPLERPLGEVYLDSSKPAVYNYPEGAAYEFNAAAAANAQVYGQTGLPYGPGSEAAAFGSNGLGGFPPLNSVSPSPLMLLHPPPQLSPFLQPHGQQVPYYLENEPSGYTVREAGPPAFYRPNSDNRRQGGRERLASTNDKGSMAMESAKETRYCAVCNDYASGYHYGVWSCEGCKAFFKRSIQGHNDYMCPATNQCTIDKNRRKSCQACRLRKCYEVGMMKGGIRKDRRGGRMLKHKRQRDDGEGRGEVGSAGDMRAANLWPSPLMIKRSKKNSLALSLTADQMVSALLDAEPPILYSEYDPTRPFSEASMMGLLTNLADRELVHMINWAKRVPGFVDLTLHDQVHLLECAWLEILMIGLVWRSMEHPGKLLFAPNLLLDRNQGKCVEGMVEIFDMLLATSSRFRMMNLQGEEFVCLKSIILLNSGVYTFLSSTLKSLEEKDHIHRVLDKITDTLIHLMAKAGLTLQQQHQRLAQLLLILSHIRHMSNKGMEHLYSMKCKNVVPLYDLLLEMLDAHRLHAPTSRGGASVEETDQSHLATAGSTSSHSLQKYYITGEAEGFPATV
Test: MCF-7 ER degradation assay (cell based immuno-fluorescence)
Settings: MCF-7 cells, 0.3 μM; ER degradation by fulvestrant at 0.3 μM is defined as 100%
MEASUREMENT_NAME: ER degradation ≥ 90% at 0.3 μM

[[record]]
given_smiles = "Cc1ncsc1-c1ccc(CNC(=O)[C@@H]2C[C@@H](O)CN2C(=O)[C@@H](NC(=O)CCCCCCCCCCOc2cc(F)c([C@@H]3c4[nH]c5ccccc5c4C[C@@H](C)N3CC(C)(C)F)c(F)c2)C(C)(C)C)cc1"
measured_target = "Estrogen Receptor (ERα) in MCF-7 human ductal carcinoma breast cell line (Homo sapiens)"
result = "•"

[[record]]
given_smiles = "Cc1ncsc1-c1ccc(CNC(=O)[C@@H]2C[C@@H](O)CN2C(=O)[C@@H](NC(=O)COCCOCCOCCOc2cc(F)c([C@@H]3c4[nH]c5ccccc5c4C[C@@H](C)N3CC3(F)CC3)c(F)c2)C(C)(C)C)cc1"
measured_target = "Estrogen Receptor (ERα) in MCF-7 human ductal carcinoma breast cell line (Homo sapiens)"
result = "••"

[[record]]
given_smiles = "Cc1ncsc1-c1ccc(CNC(=O)[C@@H]2C[C@@H](O)CN2C(=O)[C@@H](NC(=O)COCCO[C@@H](C)[C@H](C)OCCOc2cc(F)c([C@@H]3c4[nH]c5ccccc5c4C[C@@H](C)N3CC(C)(C)F)c(F)c2)C(C)(C)C)cc1"
measured_target = "Estrogen Receptor (ERα) in MCF-7 human ductal carcinoma breast cell line (Homo sapiens)"
result = "••"

[[record]]
given_smiles = "Cc1ncsc1-c1ccc(CNC(=O)[C@@H]2C[C@@H](O)CN2C(=O)[C@@H](NC(=O)COCCCc2cccc(COc3cc(F)c([C@@H]4c5[nH]c6ccccc6c5C[C@@H](C)N4CC(C)(C)F)c(F)c3)c2)C(C)(C)C)cc1"
measured_target = "Estrogen Receptor (ERα) in MCF-7 human ductal carcinoma breast cell line (Homo sapiens)"
result = "••"

